Entry source: patent US6586460B1

Each entry below carries its recorded Percentage of growth inhibition, SKOV−3.
- System: SK-OV-3
- EXPERIMENTAL_DETAILS: Growth inhibition assay (SRB)
- Format: cell-based
- TEST_PARAMETERS: 1 μM, 3 days of treatment, Table II
- Excerpt: To illustrate the general and useful biological activity of the heteroarotinoids described in this invention, selected compounds were screened for ability to inhibit the growth of three ovarian cancerous cell lines, namely Caov, SKOV, and OVCAR cell lines, three cervical cell lines (Cervix HPV-Wt p53, Cervix HPV-Mut p53, and Cervix HPV-Mut p53), and one vulvar (Vulvar HPV-Mut p53) cell line as shown in Tables I-III. […]
The reply should be a number in %, with the unit left off.

Below are worked cases with known answers.
Bench note: what Percentage of growth inhibition, SKOV−3 did CCOC(=O)c1ccc(NC(=O)Nc2cc3c(cc2OC)C(C)(C)COC3(C)C)cc1 [heteroarotinoid 33] show?
1.65

And for CCCCOC(=O)c1ccc(NC(=O)Nc2c(OC)ccc3c2C(C)(C)COC3(C)C)cc1 [heteroarotinoid 40] ?
1.82

And for CCOC(=O)c1ccc(NC(=O)Nc2cccc3c2SC(C)(C)CC3(C)C)cc1 [heteroarotinoid 24] ?
1.86

For the next question, use this compound.
Bench note: what Percentage of growth inhibition, SKOV−3 did COc1cc2c(cc1NC(=S)Nc1ccc([N+](=O)[O-])cc1C)C(C)(C)OCC2(C)C [heteroarotinoid 35] show?
10.3
